Tested on: NCI-H522 lung
Assay: NCI tumour cell line growth inhibition, 48 h
reportedEndpoint: TGI (µM)
Please state the figure in µM; there is no need to write the unit.

Data request: For COC(=O)[C@@H]1c2cc3c(c(O)c2[C@@H](OC)C[C@@]1(C)O)C(=O)c1c(O)cc2c(c1C3=O)OC1O[C@@]2(C)[C@H](O)[C@@H](N(C)C)[C@@H]1O , write its TGI.
Data returned: 1.9

Data request: For Clc1ccc(OCc2nnc3sc(-c4ccc(-c5ccc(Cl)cc5Cl)o4)nn23)c(Cl)c1 , write its TGI.
Data returned: 34.6

Data request: For Cc1cc2c(cc1O)CC[C@@H]1[C@@H]2CC[C@]2(C)[C@@H](O)CC[C@@H]12 , write its TGI.
Data returned: 23.4

Data request: For C[n+]1c2ccccc2c(CNC(CCC(N)=O)C(=O)O)c2ccccc21 (centres undefined) , write its TGI.
Data returned: 3.18

Data request: For C=C(CNCCc1ccc(O)cc1)[C@@H]1CC[C@]2(CO)CC[C@]3(C)[C@H](CC[C@@H]4[C@@]5(C)CCC(=O)C(C)(C)[C@@H]5CC[C@]43C)[C@@H]12 , write its TGI.
Data returned: 3.23

Data request: For CCSc1nc2sc(C)c(C)c2c(=O)n1-c1ccc(C(=O)O)cc1 , write its TGI.
Data returned: 76.3

* * *

Tested on: HCT-15 colon
Assay: NCI tumour cell line growth inhibition, 48 h
reportedEndpoint: GI50

Data request: For COc1ccc(-c2cnc(-c3ccc(F)cc3)[nH]2)cc1 , write its GI50.
Data returned: 5.98 µM

Data request: For CN(C)c1ccc(/C=C/c2sc3ccc4ccccc4c3[n+]2C)cc1 , write its GI50.
Data returned: 0.692 µM

Data request: For COC(=O)[C@]12CC[C@@H](C)[C@H](C)[C@@H]1C1=CC[C@@H]3[C@@]4(C)C(C=O)=C[C@@](C)(COC(C)=O)[C@@H]4[C@H](O)C[C@@]3(C)[C@]1(C)CC2 , write its GI50.
Data returned: 1.54 µM

Data request: For O=C([O-])c1ccc2c(c1)-c1nc-2nc2[n-]c(nc3nc(nc4[n-]c(n1)c1ccc(C(=O)[O-])cc41)-c1cc(C(=O)[O-])ccc1-3)c1ccc(C(=O)[O-])cc21.[Fe+2] , write its GI50.
Data returned: > 22.3 µM

* * *

Would you mind telling me the reported TGI of each entry?
Tested on: 786-0 renal
Assay: NCI tumour cell line growth inhibition, 48 h
Please state the figure in µM; there is no need to write the unit.

Data request: For CN(C)c1ccc(/C=C2\CNC/C(=C\c3ccc(N(C)C)cc3)C2=O)cc1 , write its TGI.
Data returned: 31.6

Data request: For CCCCCCOc1ccc(NC2=C(Cl)C(=O)c3cccnc3C2=O)cc1 , write its TGI.
Data returned: 2.8

Data request: For O=C1C=CC(=O)C1(Br)Br , write its TGI.
Data returned: 23.8

Data request: For COc1cc2c3c(n(CCCN4CCN(C)CC4)c(=O)c2cc1OC)-c1cc2c(cc1C3=O)OCO2 , write its TGI.
Data returned: 25.5

Data request: For CN1CCN(c2ccc(-c3cnc4c(-c5csc6ccccc56)cnn4c3)cc2)CC1 , write its TGI.
Data returned: 12.3

Data request: For CC(C)(C)OC(=O)NCCCCCCCCn1c2c(c3ccccc3c1=O)C(=O)c1ccccc1-2 , write its TGI.
Data returned: 27.5

Data request: For O=C1C(Cl)=C(Nc2ccc3cn[nH]c3c2)C(=O)c2ccccc21 , write its TGI.
Data returned: 3.21

Data request: For Cc1cc(C)c2c(n1)S(=O)(=O)N(CCCN1CCN(c3cccc(C(F)(F)F)c3)CC1)/C(=C(\O)c1ccccc1)C2=O , write its TGI.
Data returned: 16.5

Data request: For c1ccc2nc3[nH]c4ccccc4c3cc2c1 , write its TGI.
Data returned: 1.16

Data request: For COC(=O)NCCc1[nH]nc2c1C(=O)C=C(OC)C2=O , write its TGI.
Data returned: 36.2

Data request: For CN(C)CCNC(=O)c1cccc2cc3ccccc3nc12 , write its TGI.
Data returned: 8.64

Data request: For O=[N+]([O-])CC(SCc1ccccc1)c1ccc2c(c1)OCO2 (centres undefined) , write its TGI.
Data returned: 3.42
